Entries and their ELISA value (wash 3x every hour for 4 HRS) values follow.
# TEST_SYSTEM: T1, Proleukin® (aldesleukin) (human, UniProt P60568 21-153, limits assumed)
# T1 construct: Variant of human wt IL-2 with C145S (C125S on mature IL-2); also called IL-2 (Proleukin®); human IL-2 (Proleukin)
# T1 sequence (P60568 other isoform, or with tags, fused parts or gaps limits assumed): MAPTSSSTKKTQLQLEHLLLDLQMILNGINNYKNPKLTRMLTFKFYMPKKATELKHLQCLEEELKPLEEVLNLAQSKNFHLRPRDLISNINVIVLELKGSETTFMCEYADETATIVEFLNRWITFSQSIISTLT
# EXPERIMENT: ELISA, coated Proleukin, HEK293F supernatant 1:2
Your answer should be a plain number; it is taken to be in luminescence signal.

1. Antibody No: 20 (antibody, human IgG1, kappa, N297A, V domains shown, VK M33L + A50S; also called 108928) VH: EVQLVQSGAEVKKPGESLKISCKGSGYAFTNYLIEWVRQMPGKGLEWMGVINPGSGGTYYNEKFKGQVTISADKSISTAYLQWSSLKASDTAMYYCARWRGEGYYAYYDVWGQGTTVTVSS VL: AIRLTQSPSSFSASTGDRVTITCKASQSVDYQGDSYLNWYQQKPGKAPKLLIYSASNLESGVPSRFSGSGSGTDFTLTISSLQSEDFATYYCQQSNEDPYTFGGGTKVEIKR	11100

Below: the item to evaluate.
[Q] Quick one: give measured ELISA value (wash 3x every hour for 4 HRS) for 104348_VH5D98E_VK1D28Q (antibody, human IgG1, kappa, N297A, V domains shown, also called Antibody No: 1; parental antibody) VH: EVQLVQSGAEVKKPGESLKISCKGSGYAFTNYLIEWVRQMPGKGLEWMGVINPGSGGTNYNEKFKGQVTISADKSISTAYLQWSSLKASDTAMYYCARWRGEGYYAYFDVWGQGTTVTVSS VL: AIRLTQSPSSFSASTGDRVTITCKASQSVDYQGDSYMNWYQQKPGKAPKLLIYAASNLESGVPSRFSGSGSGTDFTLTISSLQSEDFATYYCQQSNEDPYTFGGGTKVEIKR
[A] 1060
